Measured Percent Effect, listed per entry.
target.under.test: Tyrosyl-tRNA synthetase, putative (Trypanosoma cruzi (strain CL Brener)) (UniProt Q4DSP6)
Sequence (Q4DSP6 as listed by the source): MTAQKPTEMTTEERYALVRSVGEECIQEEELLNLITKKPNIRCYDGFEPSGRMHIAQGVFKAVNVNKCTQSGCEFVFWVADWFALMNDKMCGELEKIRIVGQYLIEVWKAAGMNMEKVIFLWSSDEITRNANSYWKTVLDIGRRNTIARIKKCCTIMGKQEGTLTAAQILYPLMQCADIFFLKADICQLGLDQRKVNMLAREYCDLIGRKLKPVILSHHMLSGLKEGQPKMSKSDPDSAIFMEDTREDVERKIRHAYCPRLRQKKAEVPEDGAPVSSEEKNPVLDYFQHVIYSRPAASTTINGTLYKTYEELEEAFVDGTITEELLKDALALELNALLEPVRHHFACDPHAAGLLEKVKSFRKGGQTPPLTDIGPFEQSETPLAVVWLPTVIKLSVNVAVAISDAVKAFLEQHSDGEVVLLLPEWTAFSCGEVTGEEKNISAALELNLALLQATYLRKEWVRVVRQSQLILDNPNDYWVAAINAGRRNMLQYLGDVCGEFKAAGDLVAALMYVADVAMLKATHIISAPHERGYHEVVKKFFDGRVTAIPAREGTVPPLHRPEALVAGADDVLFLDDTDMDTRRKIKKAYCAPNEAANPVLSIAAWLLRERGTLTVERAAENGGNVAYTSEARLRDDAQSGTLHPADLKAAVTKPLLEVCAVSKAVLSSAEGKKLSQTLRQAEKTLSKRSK
assay.explanation: Trypanosoma cruzi tyrosyl tRNA synthetase (TcYRS) _High Tyrosine SOP
Type: functional
Design: scale not given: in the data most compounds retested in dose-response had high values
measurement.context: 30 µM
quantity.name: Percent Effect (%)

{"compound": "CCC1c2ccsc2CCN1C(=O)NCc1cc[nH]n1 (configuration not stated)", "unit.spec": "%", "val": 2.39}
{"compound": "CCN1CCN(C(=O)NCCOc2ccc3c(c2)OCO3)CC1", "unit.spec": "%", "val": 2.94}
{"compound": "O=C(NCCO)c1ccn(-c2ccc3ccccn23)n1", "unit.spec": "%", "val": 11.1}
{"compound": "Cc1cc(C)n(CC2CCCN2CCS(=O)(=O)c2ccccc2)n1 (configuration not stated)", "unit.spec": "%", "val": 1.44}
{"compound": "CNC(=O)c1cc(S(=O)(=O)C(C)C)cs1", "unit.spec": "%", "val": 6.76}
{"compound": "O=C(CCOc1ccc(Cl)cc1)N1CCN(c2cnccn2)CC1", "unit.spec": "%", "val": 9.8}
{"compound": "Cc1nn(C)c(N(C)C)c1CNCCNS(C)(=O)=O", "unit.spec": "%", "val": 7.18}
{"compound": "COc1ccc(F)cc1C(C)NC(=O)Cn1ccc(=O)n(C)c1=O (configuration not stated)", "unit.spec": "%", "val": 9.8}
{"compound": "Cc1csc2ncc(-c3ccnc(N4CCCC[C@@H]4CO)n3)c(=O)n12", "unit.spec": "%", "val": -3.68}
{"compound": "CN(C)CC1CN(Cc2coc(-c3ccccc3Cl)n2)CCO1 (configuration not stated)", "unit.spec": "%", "val": 0.526}
{"compound": "COCCc1noc(CNC2CCSC2)n1 (configuration not stated)", "unit.spec": "%", "val": 5.85}
{"compound": "CC(O)CN1CCC(CNCc2ccccc2Br)CC1 (configuration not stated)", "unit.spec": "%", "val": 4.31}
